Provenance of the data: PubChem BioAssay

Assay: HepG2 cell viability effects, profiling panel, calcein-AM fluorescence, 48 h, basal (AID 1164); further: test concentration not given here
Conditions: higher = more signal
Kindly supply the reported z-score values for the records listed here.
One number for each entry.

Provide z-score values for the following items, in order.
1. C=CC[C@@]1(C(=O)NCC(O)CO)N=C(c2ccc(OCCCO)cc2)O[C@@H]1c1ccccc1CN=[N+]=[N-] (stereo partly specified)
2. CC(=O)NCCCC[C@@H]1NC(=O)[C@@H]2C[C@H](C(=O)NCCCCCNC(=O)CS)[C@H](c3ccc(O)cc3)N2C1=O
3. COc1ccc(CCNC(=O)[C@@]2(c3ccc([N+](=O)[O-])cc3)CC(=O)N(C(C)C)[C@@H]2c2ccc(CO)cc2)cc1
4. C=CCNC(=O)[C@H]1[C@@H]2C(=O)O[C@@H](c3ccccc3)[C@@H](c3ccccc3)N2[C@@H](c2ccccc2OCCO)[C@]12C(=O)N(C(=O)OCCOC)c1ccc(C#CCNC(N)=O)cc12
5. CCOC(=O)C[C@H]1[C@H](OC(=O)Cc2ccc3c(c2)OCO3)[C@@H](NC(=O)c2ccc3ccccc3c2)c2cc(OCCCO)ccc2N1C(=O)Cc1ccc(OC)cc1
6. O=C(N1CCCCC1)[C@@]1(CCS(=O)(=O)c2ccccc2)N=C(c2ccc(OCCCO)cc2)O[C@H]1c1ccccc1

-- reply
1. 0.816
2. -0.0748
3. -0.627
4. -0.127
5. 1.56
6. -1.12

Provide z-score values for the following items, in order.
1. C=C[C@H](OC)[C@@H](OC(=O)Nc1ccc(SC)cc1)c1ccc(O)c(F)c1
2. O=C1O[C@@H](c2ccccc2)[C@@H](c2ccccc2)N2[C@@H](c3ccccc3OCCO)[C@]3(C(=O)Nc4ccc(C#CC5=CCCCC5)cc43)[C@@H](C(=O)O)[C@H]12
3. CCN1C(C)=C(C(=O)OC)[C@@H](c2ccccc2)N2C(=O)[C@@]3(C(=O)OC)O[C@@]12[C@@H]1C(=O)N(C)C(=O)[C@@H]13
4. COCCCNC(=O)[C@@]1(c2ccc([N+](=O)[O-])cc2)CC(=O)N(C2CCCCC2)[C@@H]1c1ccc(CO)cc1
5. CN1CCC(CCCO)=CC1C1CC1 (stereo unspecified)
6. C=CC[C@]1(C(=O)N2CCCCC2)N=C(c2ccc(OCCCO)cc2)O[C@H]1c1ccccc1N=[N+]=[N-]

-- reply
[-0.14, -0.992, -0.616, 0.366, -0.879, -0.715]

Provide z-score values for the following items, in order.
1. O=C1OCCC/C=C\[C@H]2OC34C=CCN(CCN5CCOCC5)C(=O)[C@H]3N(CCCCCO)C(=O)[C@@H]4C12 (stereo partly specified)
2. C=CCc1cccc([C@H]2N[C@H](C(=O)O)CC[C@@H]2C)c1

-- reply
[-0.123, -0.484]

Provide z-score values for the following items, in order.
1. C=C(CCCC)/C(=C/C[C@@H](OC(=O)c1ccncc1)c1ccc(CO)o1)c1cnc2ccccc2c1
2. COC(=O)c1ccc(C#CC(NP(=O)(c2ccccc2)c2ccccc2)c2ccccc2)cc1 (stereo unspecified)

-- reply
-0.284
0.428

###

System: Chordin-like protein 2 (CHRDL2)
Test: CHRDL2 small-molecule binders, primary screen, biochemical, small-molecule microarray, 635 nm fluorescence (AID 1126);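 further: printed compound slides probed with Chrdl2 protein at 4 µg/mL for 1 h at 4 C; score merges 667 nm emission intensity with signal to noise over three replicate slides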
Details: small-molecule microarray binding, fluorescence 635 nm; higher = more signal
EXPERIMENTAL_ENDPOINT: composite z-score
Numbers only.

COMPOUND: O=C(CS)NCCCCCCNC(=O)[C@@H]1C[C@@H]2C(=O)N[C@@H](Cc3ccccc3)C(=O)N2[C@@H]1c1ccc(O)cc1
RECORDED_NUMBER: 0.976
//
COMPOUND: O=C(NCc1ccccc1)[C@@]1(Cc2ccccc2)COC(c2ccc(OCCCO)cc2)=N1
RECORDED_NUMBER: -0.594
//
COMPOUND: O=C1c2ccccc2[C@@]2(Cc3ccccc3N(CC(F)(F)F)C2=O)[C@H](c2ccc(CO)cc2)N1C1CCCCC1
RECORDED_NUMBER: 0.759
//
COMPOUND: COCCOC(=O)N1C(=O)[C@@]2(c3cc(C#CC4(O)CCCCCC4)ccc31)[C@H](C(=O)N1CCCCCCC1)[C@H]1C(=O)O[C@H](c3ccccc3)[C@H](c3ccccc3)N1[C@@H]2c1ccc(O)cc1
RECORDED_NUMBER: 0.519
//
COMPOUND: COc1ccc([Si](C)(C)[C@@H]2[C@@H](CCO)O[C@]3(C(=O)N(Cc4ccccc4)c4ccccc43)[C@H]2C)cc1
RECORDED_NUMBER: -0.0822
//
COMPOUND: O=C(NCc1ccccc1)[C@@]1(CCS(=O)(=O)c2ccccc2)COC(c2ccc(OCCCO)cc2)=N1
RECORDED_NUMBER: -0.696
//
COMPOUND: O=C(O)[C@@H]1Cc2c([nH]c3ccccc23)[C@@H](c2ccccc2)N1
RECORDED_NUMBER: 0.379
//
COMPOUND: CO[C@H]1COC(=O)[C@H](C)NC(=O)CC=C[C@@H](C)[C@H](NS(=O)(=O)c2ccc(C)cc2)COC(=O)CC=C[C@@H]1C
RECORDED_NUMBER: 1.41

Provide composite z-score values for the following items, in order.
1. CO[C@H]1COC(=O)[C@@H](C)COC(=O)[C@H](Cc2ccccc2)NC(=O)CC=C[C@H]1C
2. COC(=O)Cn1c(C(=O)N2CCCC2)cc2c1C[C@H]1CN(C(=O)c3ccccc3)[C@@](Cc3ccc(OC)cc3)(C(=O)OC)[C@@H]21
3. C=CC[C@]1(C(=O)OC)N=C(c2ccc(OCCCO)cc2)O[C@H]1c1ccccc1CN=[N+]=[N-]
4. O=C(NCC(O)CO)[C@]1(Cc2ccccc2)N=C(c2ccc(OCCCO)cc2)O[C@@H]1c1ccccc1 (stereo not given in full)

-- reply
1. 1.48
2. 0.207
3. -0.45
4. -1.93

Provide composite z-score values for the following items, in order.
1. COC(=O)C[C@H]1O[C@]2(C(=O)N(Cc3ccccc3)c3ccc(I)cc32)[C@@H](C)[C@@H]1[Si](C)(C)c1ccc(OC)cc1
2. CO[C@H]1COC(=O)CC=C[C@H](C)[C@@H](OC)COC(=O)CC=C[C@@H]1C
3. COC(=O)C1=CC(c2ccc(CO)cc2)=CC(C2CC2)N(Cc2sc3ccccc3c2Cl)C=C1C(=O)OC (stereo not given)

-- reply
0.0477
1.21
0.185

###

Test: E. coli DRC41 culture turbidity changes, primary screen, E. coli filamentation inducer project, strain DRC41, OD650, 48 h (AID 1152);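 further: E. coli MC1000 strain DRC41 lacking acrAB efflux pump and sulA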
Details: E. coli DRC41 (acrAB sulA), higher = more signal, called active from +8 up or from −8 down
Kindly supply the reported z-score values for the records listed here.
Give bare numbers.

MOLECULE: CN(C)CCCC[C@@H]1NC(=O)[C@@H]2C[C@H](C(=O)NCCCCCNC(=O)CS)[C@H](c3ccc(O)cc3)N2C1=O
z-score: 1.04

Provide z-score values for the following items, in order.
1. COc1cc2c(cc1OC)CN(C(=O)[C@@H]1[C@H]3C(=O)O[C@H](c4ccccc4)[C@H](c4ccccc4)N3[C@H](c3ccccc3OCCO)[C@@]13C(=O)Nc1ccccc13)CC2
2. O=C1OCC=C[C@H]2OC34C=CCN(Cc5ccccc5)C(=O)[C@H]3N(CCO)C(=O)[C@@H]4[C@@H]12 (some centres not stated)
3. CO[C@H]1COC(=O)CC=C[C@H](C)[C@@H](OC)COC(=O)[C@H](Cc2ccccc2)NC(=O)CC=C[C@@H]1C
4. C=C(C(=O)CC[C@H](OC(=O)c1ccccc1-c1ccccc1C(=O)O)c1ccc(CO)o1)C(C)C
5. COCCCNC(=O)[C@@]1(Sc2ccc(C)cc2)CC(=O)N(Cc2cc(C(F)(F)F)cc(C(F)(F)F)c2)[C@@H]1c1ccc(CO)cc1I
6. CC(C)[Si]1(C(C)C)OCc2cc(C3CC3)nc(-c3ccccc3)c21

-- reply
1. 1.47
2. 2.41
3. -0.76
4. -0.748
5. 1.57
6. 2.37

###

Biological target: Follistatin (Homo sapiens) (UniProt P19883)
Sequence (P19883 whole entry, looked up): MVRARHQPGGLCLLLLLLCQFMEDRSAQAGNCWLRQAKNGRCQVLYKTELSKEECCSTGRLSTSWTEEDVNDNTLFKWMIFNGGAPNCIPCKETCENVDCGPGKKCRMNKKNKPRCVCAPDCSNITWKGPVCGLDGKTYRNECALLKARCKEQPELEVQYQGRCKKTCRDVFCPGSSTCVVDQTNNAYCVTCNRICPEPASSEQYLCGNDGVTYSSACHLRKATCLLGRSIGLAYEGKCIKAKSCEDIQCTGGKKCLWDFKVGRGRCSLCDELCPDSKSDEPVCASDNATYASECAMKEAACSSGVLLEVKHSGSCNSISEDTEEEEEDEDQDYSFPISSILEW
Experiment: follistatin binders on small-molecule microarrays, primary screen, biochemical, small-molecule microarray, 635/667 nm fluorescence (AID 1132)
Conditions: FST binding, 635 nm fluorescence, higher = more signal
Class field: derived from composite z-score; ranges small value = under 0.05, mid value = from 0.05 up to 0.6, large value = 0.6 and over

// below: answered compounds
COMPOUND: CO[C@H]1O[C@H](CO)[C@@H](OC(=O)CCc2ccccc2)[C@@H]2OC(=O)[C@H](Cc3cccc(Br)c3)C/C=C/C[C@@H](Cc3cccc(Br)c3)C(=O)O[C@@H]12
ANSWER_LABEL: small value
--
COMPOUND: NC(=O)NCC#Cc1ccc2c(c1)[C@]1(C(=O)N2)[C@H](C(=O)N2CCCCCCC2)[C@H]2C(=O)O[C@H](c3ccccc3)[C@H](c3ccccc3)N2[C@@H]1c1ccccc1OCCO
ANSWER_LABEL: large value

-- ask Exam item: assign CN(C)C(=O)[C@@]1(Cc2ccccc2N=[N+]=[N-])N=C(c2ccc(OCCCO)cc2)O[C@H]1c1ccccc1CN=[N+]=[N-] to the correct category.
-- reply large value

-- ask Exam item: assign [N-]=[N+]=NCc1ccccc1C[C@]1(C(=O)N2CCCCC2)N=C(c2ccc(OCCCO)cc2)O[C@H]1c1ccccc1CN=[N+]=[N-] to the correct category.
-- reply large value

-- ask Exam item: assign C=CC[C@]1(C(N)=O)N=C(c2ccc(OCCCO)cc2)O[C@H]1c1ccccc1CN=[N+]=[N-] to the correct category.
-- reply large value

-- ask Exam item: assign CC(C)[C@H]1NC(=O)[C@@]23C(=O)N[C@@H](Cc4ccccc4)C2[C@H](C)[C@@]2(C)O[C@H]2C3/C=C/C/C=C\CNC(=O)[C@H](C)NC1=O (some centres undefined) to the correct category.
-- reply small value

-- ask Exam item: assign O=C(NCC(F)(F)F)[C@@H]1c2ccccc2C(=O)N(Cc2ccccc2Cl)[C@H]1c1ccc(CO)cc1 to the correct category.
-- reply small value

-- ask Exam item: assign O=C1C2C=CC(C(O)Cc3ccccc3)N(Nc3ccc([N+](=O)[O-])cc3)C2C(=O)N1c1ccccc1 (centres undefined) to the correct category.
-- reply mid value
